Parameter IC50: see the listing below.
# experimentalTarget: ChT-L activity of 20S proteasome (Mus musculus, UniProt O09061+O55234)
# Construct: 20S proteasome purified from mouse liver; from tissue; host or cells: mouse liver
# measurementProtocol: Assay for ChT-L activity of 20S proteasome with fluorogenic peptide Suc-Leu-Leu-Val-Tyr-AMC
# Type: biochemical
# protocolConditions: 20S proteasome purified from mouse liver (1 μg), 50 μM Suc-Leu-Leu-Val-Tyr-AMC, 20 mM Tris-HCl pH 7.8, 37 °C, 1 h
Residues, ends and D or L forms follow the SMILES beside them. *: point of attachment. Cbz = O=C(OCc1ccccc1)*; Boc = CC(C)(C)OC(=O)*; OtBu = CC(C)(C)O*

[
  {
    "compound": "CC(C)C[C@@H](C=O)NC(=O)[C@H](Cc1ccccc1)NC(=O)[C@H](CCC(=O)OC(C)(C)C)NC(=O)OCc1ccccc1 [Compound 3c, Cbz-L-Glu(OtBu)-L-Phe-L-Leucinal] (Cbz-Glu(OtBu)-Phe-Leu-aldehyde)",
    "unitOfMeasurement": "nM",
    "relationSymbol": "=",
    "IC50": 28
  },
  {
    "compound": "CC(C)CC(C=O)NC(=O)C(Cc1ccccc1)NC(=O)C1CCCN1C(=O)OC(C)(C)C [Compound 3m, Boc-L-Pro-L-Phe-L-Leucinal] (Boc-Pro-Phe-Leu-aldehyde; configuration not given here)",
    "unitOfMeasurement": "nM",
    "relationSymbol": ">",
    "IC50": 50000
  }
]

###

Parameter pIC50: see the listing below.
# experimentalTarget: ChT-L activity of 20S proteasome (Mus musculus, UniProt O09061+O55234)
# Construct: 20S proteasome purified from mouse liver
# measurementProtocol: Assay for ChT-L activity of 20S proteasome with fluorogenic peptide Suc-Leu-Leu-Val-Tyr-AMC
# protocolConditions: 20S proteasome purified from mouse liver (1 μg), 50 μM Suc-Leu-Leu-Val-Tyr-AMC, 20 mM Tris-HCl pH 7.8, 37 °C, 1 h
pIC50: −log10 of the molar value. Residues, ends and D or L forms follow the SMILES beside them. *: point of attachment. Cbz = O=C(OCc1ccccc1)*; Boc = CC(C)(C)OC(=O)*; Bn = c1ccc(C*)cc1

[
  {
    "molecule": "CC(C)C[C@@H](C=O)NC(=O)[C@H](CC(C)C)NC(=O)[C@H](CC(C)C)NC(=O)OCc1ccccc1 [MG132, Cbz-L-Leu-L-Leu-L-Leucinal, reference compound] (Cbz-Leu-Leu-Leu-aldehyde)",
    "pIC50": 6.55
  },
  {
    "molecule": "CC(C)CC(C=O)NC(=O)C(CC(C)C)NC(=O)C(COCc1ccccc1)NC(=O)OC(C)(C)C [Compound 3o, Boc-L-Ser(OBn)-L-Leu-L-Leucinal] (Boc-Ser(Bn)-Leu-Leu-aldehyde; configuration not given here)",
    "pIC50": 7.30
  }
]

###

# experimentalTarget: ChT-L activity of 20S proteasome (Mus musculus, UniProt O09061+O55234)
# Construct: 20S proteasome purified from mouse liver
# measurementProtocol: Assay for ChT-L activity of 20S proteasome with fluorogenic peptide Suc-Leu-Leu-Val-Tyr-AMC
# protocolConditions: 20S proteasome purified from mouse liver (1 μg), 50 μM Suc-Leu-Leu-Val-Tyr-AMC, 20 mM Tris-HCl pH 7.8, 37 °C, 1 h
Non-standard residues stand in square brackets, D forms with d. Residues, ends and D or L forms follow the SMILES beside them. *: point of attachment. Arg(NO2) = N=C(NCCC[C@H](N)C(=O)O)N[N+](=O)[O-]; 2Nal = N[C@@H](Cc1ccc2ccccc2c1)C(=O)O; Tos = Cc1ccc(S(=O)(=O)*)cc1; Cbz = O=C(OCc1ccccc1)*; Boc = CC(C)(C)OC(=O)*; OBn = c1ccc(CO*)cc1; Bn = c1ccc(C*)cc1; OtBu = CC(C)(C)O*
Parameter IC50: see the listing below.
propertyName: IC50

[
  {
    "compound": "CC(C)CC(C=O)NC(=O)C(CC(C)C)NC(=O)C(CC(=O)OCc1ccccc1)NC(=O)OC(C)(C)C [Compound 3j, Boc-L-Asp(OBzl)-L-Leu-L-Leucinal] (Boc-Asp(OBn)-Leu-Leu-aldehyde; configuration not given here)",
    "experimentalTarget": "ChT-L activity of 20S proteasome (Mus musculus, UniProt O09061+O55234)",
    "measurement": "20.3 µM"
  },
  {
    "compound": "CC(C)C[C@@H](C=O)NC(=O)[C@H](CC(C)C)NC(=O)[C@H](CCC(=O)OCc1ccccc1)NC(=O)OC(C)(C)C [Compound 3l, Boc-L-Glu(OBzl)-L-Leu-L-Leucinal] (Boc-Glu(OBn)-Leu-Leu-aldehyde)",
    "experimentalTarget": "ChT-L activity of 20S proteasome (Mus musculus, UniProt O09061+O55234)",
    "measurement": "> 50 µM"
  },
  {
    "compound": "CC(C)C[C@@H](C=O)NC(=O)[C@H](CC(C)C)NC(=O)[C@H](CCC(=O)OC(C)(C)C)NC(=O)OCc1ccccc1 [Compound 3d, Cbz-L-Glu(OtBu)-L-leu-L-Leucinal] (Cbz-Glu(OtBu)-Leu-Leu-aldehyde)",
    "experimentalTarget": "ChT-L activity of 20S proteasome (Mus musculus, UniProt O09061+O55234)",
    "measurement": "0.089 µM"
  },
  {
    "compound": "CC(C)C[C@@H](C=O)NC(=O)[C@H](CC(C)C)NC(=O)[C@H](Cc1ccc2ccccc2c1)NC(=O)OCc1ccccc1 [Compound 3h] (Cbz-[2Nal]-Leu-Leu-aldehyde)",
    "experimentalTarget": "ChT-L activity of 20S proteasome (Mus musculus, UniProt O09061+O55234)",
    "measurement": "0.41 µM"
  },
  {
    "compound": "CC(C)C[C@@H](C=O)NC(=O)[C@H](CC(C)C)NC(=O)[C@H](CCCNC(N)=N[N+](=O)[O-])NC(=O)OCc1ccccc1 [Compound 3f, Cbz-L-Arg(NO2)-L-leu-L-Leucinal] (Cbz-[Arg(NO2)]-Leu-Leu-aldehyde)",
    "experimentalTarget": "ChT-L activity of 20S proteasome (Mus musculus, UniProt O09061+O55234)",
    "measurement": "> 50 µM"
  },
  {
    "compound": "CC(C)CC(C=O)NC(=O)C(CC(C)C)NC(=O)C(CC(=O)OC(C)(C)C)NC(=O)OCc1ccccc1 [Compound 3b, Cbz-L-Asp(OtBu)-L-Leu-L-Leucinal] (Cbz-Asp(OtBu)-Leu-Leu-aldehyde; configuration not given here)",
    "experimentalTarget": "ChT-L activity of 20S proteasome (Mus musculus, UniProt O09061+O55234)",
    "measurement": "0.2 µM"
  },
  {
    "compound": "CC(C)C[C@@H](C=O)NC(=O)[C@H](Cc1ccccc1)NC(=O)[C@H](CC(=O)OCc1ccccc1)NC(=O)OC(C)(C)C [Compound 3i, Boc-L-Asp(OBzl)-L-Phe-L-Leucinal] (Boc-Asp(OBn)-Phe-Leu-aldehyde)",
    "experimentalTarget": "ChT-L activity of 20S proteasome (Mus musculus, UniProt O09061+O55234)",
    "measurement": "4.83 µM"
  },
  {
    "compound": "CC(C)CC(C=O)NC(=O)C(CC(C)C)NC(=O)C(Cc1ccc(OCc2ccccc2)cc1)NC(=O)OC(C)(C)C [Compound 3q, Boc-L-Tyr(OBn)-L-Leu-L-Leucinal] (Boc-Tyr(Bn)-Leu-Leu-aldehyde; configuration not given here)",
    "experimentalTarget": "ChT-L activity of 20S proteasome (Mus musculus, UniProt O09061+O55234)",
    "measurement": "> 50 µM"
  },
  {
    "compound": "CC(C)CC(C=O)NC(=O)C(CC(C)C)NC(=O)C(NC(=O)OC(C)(C)C)C(C)OCc1ccccc1 [Compound 3p, Boc-L-Thr(OBn)-L-Leu-L-Leucinal] (Boc-Thr(Bn)-Leu-Leu-aldehyde; configuration not given here)",
    "experimentalTarget": "ChT-L activity of 20S proteasome (Mus musculus, UniProt O09061+O55234)",
    "measurement": "0.29 µM"
  },
  {
    "compound": "CC(C)C[C@@H](C=O)NC(=O)[C@H](Cc1ccccc1)NC(=O)[C@H](CCC(=O)OCc1ccccc1)NC(=O)OC(C)(C)C [Compound 3k, Boc-L-Glu(OBzl)-L-Phe-L-Leucinal] (Boc-Glu(OBn)-Phe-Leu-aldehyde)",
    "experimentalTarget": "ChT-L activity of 20S proteasome (Mus musculus, UniProt O09061+O55234)",
    "measurement": "7.14 µM"
  },
  {
    "compound": "CC(C)CC(C=O)NC(=O)C(CC(C)C)NC(=O)C1CCCN1C(=O)OC(C)(C)C [Compound 3n, Boc-L-Pro-L-Leu-L-Leucinal] (Boc-Pro-Leu-Leu-aldehyde; configuration not given here)",
    "experimentalTarget": "ChT-L activity of 20S proteasome (Mus musculus, UniProt O09061+O55234)",
    "measurement": "> 50 µM"
  },
  {
    "compound": "Cc1ccc(S(=O)(=O)NC(=N)NCCCC(NC(=O)OCc2ccccc2)C(=O)NC(CC(C)C)C(=O)NC(C=O)CC(C)C)cc1 [Compound 3g, Cbz-L-Arg(Tos)-L-leu-L-Leucinal] (Cbz-Arg(Tos)-Leu-Leu-aldehyde; configuration not given here)",
    "experimentalTarget": "ChT-L activity of 20S proteasome (Mus musculus, UniProt O09061+O55234)",
    "measurement": "> 50 µM"
  },
  {
    "compound": "CC(C)CC(C=O)NC(=O)C(Cc1ccccc1)NC(=O)C(CC(=O)OC(C)(C)C)NC(=O)OCc1ccccc1 [Compound 3a, Cbz-L-Asp(OtBu)-L-Phe-L-Leucinal] (Cbz-Asp(OtBu)-Phe-Leu-aldehyde; configuration not given here)",
    "experimentalTarget": "ChT-L activity of 20S proteasome (Mus musculus, UniProt O09061+O55234)",
    "measurement": "0.21 µM"
  }
]

Source of measurements: paper PMC6264673
